binders and their reported pKi
# experimental.target: T1, human vasopressin V1b receptor (hV1bR) (human, UniProt P47901 1-424)
# T1 construct: vasopressin V1b receptor, human; in membrane preparations; source: HEK293, stably expressing; membrane preparations
# T1 sequence (looked up): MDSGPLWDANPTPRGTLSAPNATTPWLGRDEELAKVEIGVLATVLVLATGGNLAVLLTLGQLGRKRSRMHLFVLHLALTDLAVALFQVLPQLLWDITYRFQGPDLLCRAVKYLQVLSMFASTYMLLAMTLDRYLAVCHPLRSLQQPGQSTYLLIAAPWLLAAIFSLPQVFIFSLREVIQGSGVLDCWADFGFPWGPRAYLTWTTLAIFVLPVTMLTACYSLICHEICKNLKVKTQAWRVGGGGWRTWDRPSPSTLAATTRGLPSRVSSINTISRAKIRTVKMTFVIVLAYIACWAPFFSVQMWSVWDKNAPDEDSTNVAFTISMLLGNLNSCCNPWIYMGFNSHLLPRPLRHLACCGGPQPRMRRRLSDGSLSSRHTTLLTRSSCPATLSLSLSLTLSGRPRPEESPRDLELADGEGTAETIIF
# assay.text: radioligand binding; displacement of [3H]-OT or [3H]-VP from membrane preparations of HEK293 cells stably expressing the human receptor; dose-response curves in duplicates, at least three independent experiments; Ki >10 µM assigned where <25% of the radioligand was displaced at 10 µM
# recorded.conditions: one partner purified
pKi: −log10 of the molar value. Positions of bridges follow the written chain, without caps; N, C: chain ends. Non-standard residues stand in square brackets, D forms with d. Groups on a side chain read outwards from the residue. Primed or numbered codes have the meaning given here. No end group written: not given here. εdLys = D-Lys linked through its epsilon amine (k^ε); PEG5′ = PEG5 spacer, as named in the construct; Cy3s = Cy3s fluorophore, as named; Cy5s = Cy5s fluorophore, as named; Orn = NCCC[C@H](N)C(=O)O; Mpa = O=C(O)CCS
measured.property: pKi

[[record]]
binder = "[Mpa]YIQNCP[Orn]([εdLys-εdLys-Cy3s])G (disulfide 1-6) [d(Orn)^8OT‐[k^ε‐k^ε‐Cy3s]^8]"
modifier = "="
assay_result = 8.00

[[record]]
binder = "[Mpa]YIQNCP[Orn]([PEG5′-εdLys-Cy3s])G (disulfide 1-6) [d(Orn)^8OT‐[PEG5‐k^ε‐Cy3s]^8]"
modifier = "="
assay_result = 6.62

[[record]]
binder = "[Mpa]INYQCP[Orn]([dD-PEG5′-εdLys-Cy3s])G (disulfide 1-6 (inferred)) [scrambled cyclic tracer dCINYQCP(Orn)G‐[d‐PEG5‐k^ε‐Cy3s]^8]"
modifier = "<"
assay_result = 5.00

[[record]]
binder = "[Mpa]YIQNCP[Orn]([PEG5′-Cy5s])G (disulfide 1-6) [d(Orn)^8OT‐[PEG5‐Cy5s]^8]"
modifier = "="
assay_result = 6.42

[[record]]
binder = "[Mpa]YIQNCP[Orn]([dD-PEG5′-εdLys-TAMRA])G (disulfide 1-6) [d(Orn)^8OT‐[d‐PEG5‐k^ε‐TAMRA]^8]"
modifier = "="
assay_result = 6.03

[[record]]
binder = "[Mpa]YIQNCP[Orn]([PEG5′-Cy3s])G (disulfide 1-6) [d(Orn)^8OT‐[PEG5‐Cy3s]^8]"
modifier = "="
assay_result = 6.43

